target: MCL-1 (Homo sapiens (Human), UniProt Q07820, K194A/K197A/R201A); assay: Protein-compound interaction assay (SPR assay, Assay 9); type: binding; conditions: read-out: koff (geometric mean), SPR, 25° C.
Sequence (Q07820 whole entry K194A/K197A/R201A, looked up): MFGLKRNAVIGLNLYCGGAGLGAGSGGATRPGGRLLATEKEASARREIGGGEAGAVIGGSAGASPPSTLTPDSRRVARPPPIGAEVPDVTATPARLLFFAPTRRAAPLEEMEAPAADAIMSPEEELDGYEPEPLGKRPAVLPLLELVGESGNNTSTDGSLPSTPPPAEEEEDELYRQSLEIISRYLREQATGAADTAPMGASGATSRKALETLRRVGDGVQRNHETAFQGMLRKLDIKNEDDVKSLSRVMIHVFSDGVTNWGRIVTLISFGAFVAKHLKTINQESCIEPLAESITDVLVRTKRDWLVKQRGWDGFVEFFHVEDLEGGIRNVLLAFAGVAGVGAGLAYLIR
Reported koff values are given for each entry in this list.

# MOLECULE, TESTED_SYSTEM, MEASUREMENT_UNITS, koff
measured = [
    ("CCc1c2c(nn1C)C(CCOC)OCCCCn1c(C(=O)O)c(CCCOc3cccc4cc(F)ccc34)c3ccc(Cl)c-2c31 (single isomer, unassigned; enantiomer 1)", "MCL-1 (Homo sapiens (Human), UniProt Q07820, K194A/K197A/R201A)", "s⁻¹", 0.0032),
    ("Cc1c2c(nn1C)C(CCO)OCCCCn1c(C(=O)O)c(CCCOc3cccc4ccccc34)c3ccc(Cl)c-2c31 (single isomer, unassigned; enantiomer 1)", "MCL-1 (Homo sapiens (Human), UniProt Q07820, K194A/K197A/R201A)", "s⁻¹", 0.008),
    ("CCc1c2c(nn1C)C(CCC(C)(C)O)OCCCCn1c(C(=O)O)c(CCCOc3cccc4cc(F)ccc34)c3ccc(Cl)c-2c31 (single isomer, unassigned; enantiomer 1)", "MCL-1 (Homo sapiens (Human), UniProt Q07820, K194A/K197A/R201A)", "s⁻¹", 0.0022),
    ("Cc1c2c(nn1C)C(CCN1CCOCC1)OCCCCn1c(C(=O)O)c(CCCOc3cccc4ccccc34)c3ccc(Cl)c-2c31 (single isomer, unassigned; enantiomer 1)", "MCL-1 (Homo sapiens (Human), UniProt Q07820, K194A/K197A/R201A)", "s⁻¹", 0.031),
    ("Cc1c2c(nn1C)C(CCN1CCOCC1)OCCCCn1c(C(=O)O)c(CCCOc3cccc4cc(F)ccc34)c3ccc(F)c-2c31 (single isomer, unassigned; enantiomer 1)", "MCL-1 (Homo sapiens (Human), UniProt Q07820, K194A/K197A/R201A)", "s⁻¹", 0.018),
]
